- system tested: T1, human CD4 on human PBMCs (human, UniProt P01730 26-458)
- T1 construct: whole, on cells; the CD4-positive gate was set with the control antibodies OKT4 and RPA-T4; also called hCD4
- assay notes: FACS, clonal hybridoma supernatant on human PBMCs
endpoint label: gMFI of CD4+ (gMFI)
Provide the reading as a plain figure in gMFI.

Lookup: # gMFI of CD4+ lookup, item 75110_12K21A (antibody, V domains shown, Tested as clonal hybridoma supernatant from AlivaMab Mouse Kappa mice: human variable regions, human kappa, mouse Fc) VH: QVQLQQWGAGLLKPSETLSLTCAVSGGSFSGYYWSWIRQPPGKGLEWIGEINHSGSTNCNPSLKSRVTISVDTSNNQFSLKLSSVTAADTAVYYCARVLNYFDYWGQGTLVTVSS VL: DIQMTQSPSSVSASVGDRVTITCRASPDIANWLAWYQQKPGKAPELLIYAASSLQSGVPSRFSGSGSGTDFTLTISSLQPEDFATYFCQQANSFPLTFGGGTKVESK
Found: 147000
